Target: α1B Human Adrenergic Receptor (Homo sapiens)
Construct: The entire coding region of α1B(1563 bp); expressed in transfected cells; host or cells: LM(tk-) cells
Sequence (P35368 whole entry): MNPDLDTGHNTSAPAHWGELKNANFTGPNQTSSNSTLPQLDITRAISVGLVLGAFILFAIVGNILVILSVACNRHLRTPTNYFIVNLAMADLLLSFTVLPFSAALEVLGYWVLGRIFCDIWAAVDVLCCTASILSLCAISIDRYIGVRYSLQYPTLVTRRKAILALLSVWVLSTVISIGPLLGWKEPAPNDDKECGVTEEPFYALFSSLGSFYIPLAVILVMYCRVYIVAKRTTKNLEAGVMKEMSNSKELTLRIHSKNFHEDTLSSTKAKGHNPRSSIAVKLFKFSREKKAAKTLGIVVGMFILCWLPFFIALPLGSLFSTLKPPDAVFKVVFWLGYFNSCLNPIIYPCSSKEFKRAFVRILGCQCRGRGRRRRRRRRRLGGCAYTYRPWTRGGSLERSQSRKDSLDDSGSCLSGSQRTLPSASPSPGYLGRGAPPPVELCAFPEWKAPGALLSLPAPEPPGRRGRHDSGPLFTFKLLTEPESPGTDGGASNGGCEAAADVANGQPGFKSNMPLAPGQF
Assay: Equilibrium competition binding, [3H] prazosin, membranes of transfected LM(tk-) cells
pKi: −log10 of the molar value.
I would appreciate it if you labelled entries TRUE when pKi is 5 or higher, otherwise FALSE.

INSERT INTO results (compound, group_label) VALUES
  ('CC(C)n1cnc2cc(NC3=NCCN3)ccc21 [Example 17]', 'FALSE'),
  ('Brc1c(NC2=NCCN2)ccc2nc[nH]c12 [Example 2]', 'TRUE'),
  ('Brc1c(NC2=NCCN2)ccc2ncn(CC3CCCCC3)c12 [Example 31]', 'TRUE');

* * *

Molecular target: α2C Human Adrenergic Receptor (Homo sapiens, UniProt P18825)
Sequence (P18825 1-462): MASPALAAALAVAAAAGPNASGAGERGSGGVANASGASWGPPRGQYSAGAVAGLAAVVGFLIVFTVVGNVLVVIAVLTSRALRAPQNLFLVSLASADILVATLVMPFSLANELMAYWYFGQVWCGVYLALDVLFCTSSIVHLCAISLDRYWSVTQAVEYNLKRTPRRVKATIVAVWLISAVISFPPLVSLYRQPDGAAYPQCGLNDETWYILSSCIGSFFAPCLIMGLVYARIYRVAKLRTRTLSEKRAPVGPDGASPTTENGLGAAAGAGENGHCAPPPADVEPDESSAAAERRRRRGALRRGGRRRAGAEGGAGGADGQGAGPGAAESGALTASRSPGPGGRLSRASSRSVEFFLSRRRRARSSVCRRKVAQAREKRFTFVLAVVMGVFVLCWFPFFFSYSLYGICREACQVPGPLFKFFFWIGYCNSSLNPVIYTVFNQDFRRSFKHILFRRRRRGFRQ
Test: Equilibrium competition binding, [3H] rauwolscine, membranes of transfected LM(tk-) cells
Catalogue of Ki readings, one per entry.
REPORTED_METRIC: Ki

INSERT INTO assay_data (structure_as_smiles, result) VALUES
  ('Clc1cc(NC2=NCCN2)cc2[nH]cnc12', '89.1 nM'),
  ('Brc1c(NC2=NCCN2)ccc2ncn(C3CCCC3)c12', '95.5 nM'),
  ('c1cc2c(cc1NC1=NCCN1)ncn2CC1CCCCC1', '490 nM'),
  ('CC(C)n1cnc2ccc(NC3=NCCN3)cc21', '631 nM'),
  ('Brc1cc(NC2=NCCN2)cc2[nH]cnc12', '123 nM'),
  ('c1nc2ccc(NC3=NCCN3)cc2[nH]1', '70.8 nM'),
  ('Brc1cc2nc[nH]c2c(Br)c1NC1=NCCN1', '24.5 nM'),
  ('CC(C)Cn1cnc2cc(NC3=NCCN3)ccc21', '182 nM'),
  ('Clc1c(NC2=NCCN2)ccc2nc[nH]c12', '100 nM'),
  ('CCCn1cnc2cc(NC3=NCCN3)ccc21', '398 nM'),
  ('Brc1c(NC2=NCCN2)ccc2ncn(CC3CCCCC3)c12', '38.9 nM'),
  ('CCc1cc(NC2=NCCN2)cc2[nH]cnc12', '427 nM'),
  ('Brc1c(NC2=NCCN2)ccc2c1ncn2C1CCCC1', '257 nM');

* * *

Molecular target: α2C Human Adrenergic Receptor (Homo sapiens, UniProt P18825)
Sequence (P18825 1-462): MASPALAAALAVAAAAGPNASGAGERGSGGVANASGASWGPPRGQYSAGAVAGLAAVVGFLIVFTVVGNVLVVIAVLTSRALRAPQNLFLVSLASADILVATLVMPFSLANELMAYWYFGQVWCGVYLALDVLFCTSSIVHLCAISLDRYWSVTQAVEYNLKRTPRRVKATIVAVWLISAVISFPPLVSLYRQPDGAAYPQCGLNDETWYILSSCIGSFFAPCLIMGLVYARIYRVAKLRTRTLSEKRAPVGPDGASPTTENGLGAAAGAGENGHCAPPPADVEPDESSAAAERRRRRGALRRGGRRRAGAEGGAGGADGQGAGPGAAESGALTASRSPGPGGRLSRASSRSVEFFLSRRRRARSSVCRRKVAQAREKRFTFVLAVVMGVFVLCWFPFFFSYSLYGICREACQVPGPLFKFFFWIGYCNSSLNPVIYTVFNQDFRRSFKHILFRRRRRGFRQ
Assay type: cell-based
Design: The entire coding region of α2C (1383 bp), including 2 bp of 5′ UT and 400 bp of 3′ UT; expressed in transfected cells; host or cells: LM(tk-) cells
Details: functional cAMP assay
REPORTED_METRIC: I.A Alpha-2 C

INSERT INTO measurements (structure_as_smiles, readout_number) VALUES
  ('Cn1cnc2cc(NC3=NCCN3)ccc21', 1.00),
  ('Brc1c(NC2=NCCN2)ccc2nc[nH]c12', 1.00),
  ('Ic1cc(NC2=NCCN2)cc2[nH]cnc12', 0.90),
  ('CCCc1c(NC2=NCCN2)ccc2nc[nH]c12', 1.00),
  ('CC(C)c1nc2ccc(NC3=NCCN3)c(Br)c2[nH]1', 0.80),
  ('OCCn1cnc2c(Br)c(NC3=NCCN3)ccc21', 1.00),
  ('Clc1c(NC2=NCCN2)ccc2nc[nH]c12', 1.00),
  ('c1nc2ccc(NC3=NCCN3)cc2[nH]1', 1.00),
  ('Cc1cc(NC2=NCCN2)c(Br)c2[nH]cnc12', 1.00),
  ('Clc1cc(NC2=NCCN2)c(Br)c2[nH]cnc12', 1),
  ('Cc1cc(NC2=NCCN2)cc2[nH]cnc12', 1.00),
  ('CCCCc1cc(NC2=NCCN2)cc2[nH]cnc12', 1.00);

* * *

Biological target: α1B Human Adrenergic Receptor (Homo sapiens)
Construct: The entire coding region of α1B(1563 bp); expressed in transfected cells; host or cells: LM(tk-) cells
Assay: Equilibrium competition binding, [3H] prazosin, membranes of transfected LM(tk-) cells
Conditions: cloned human receptor; [3H] prazosin; read-out: pKi Alpha-1 B (converted)
Description: Binding and functional assays were performed using stably transfected human alpha adrenergic receptors. […] Transfected cells from culture flasks were scraped into 5 ml of 5 mM Tris-HCl, 5 mM EDTA, pH 7.5, and lysed by sonication. […] Nonspecific binding was determined in the presence of 10 μM phentolamine. […]
Catalogue of log10(Ki) readings, one per entry.
REPORTED_METRIC: log10(Ki) (log10 of the value in µM)

INSERT INTO assay_data (structure_as_smiles, target_entity, reported_metric, readout_number) VALUES
  ('CC(C)n1cnc2ccc(NC3=NCCN3)c(Br)c21', 'α1B Human Adrenergic Receptor (Homo sapiens)', 'log10(Ki)', 0.67),
  ('CC(C)Cn1cnc2ccc(NC3=NCCN3)c(Br)c21', 'α1B Human Adrenergic Receptor (Homo sapiens)', 'log10(Ki)', 0.69),
  ('CCCn1cnc2cc(NC3=NCCN3)ccc21', 'α1B Human Adrenergic Receptor (Homo sapiens)', 'log10(Ki)', 1.97),
  ('Clc1cc(NC2=NCCN2)c(Br)c2[nH]cnc12', 'α1B Human Adrenergic Receptor (Homo sapiens)', 'log10(Ki)', -0.50),
  ('CCCc1c(NC2=NCCN2)ccc2nc[nH]c12', 'α1B Human Adrenergic Receptor (Homo sapiens)', 'log10(Ki)', 0.09),
  ('Clc1cc(NC2=NCCN2)cc2[nH]cnc12', 'α1B Human Adrenergic Receptor (Homo sapiens)', 'log10(Ki)', 0.28),
  ('Cc1nc2ccc(NC3=NCCN3)c(Br)c2[nH]1', 'α1B Human Adrenergic Receptor (Homo sapiens)', 'log10(Ki)', 0.93),
  ('Brc1c(NC2=NCCN2)ccc2c1ncn2Cc1ccccc1', 'α1B Human Adrenergic Receptor (Homo sapiens)', 'log10(Ki)', 1.52),
  ('CCCCc1cc(NC2=NCCN2)cc2[nH]cnc12', 'α1B Human Adrenergic Receptor (Homo sapiens)', 'log10(Ki)', 0.71),
  ('Cn1cnc2ccc(NC3=NCCN3)cc21', 'α1B Human Adrenergic Receptor (Homo sapiens)', 'log10(Ki)', 1.55),
  ('c1cc2ncn(C3CCCC3)c2cc1NC1=NCCN1', 'α1B Human Adrenergic Receptor (Homo sapiens)', 'log10(Ki)', 1.53),
  ('CC(C)c1nc2ccc(NC3=NCCN3)c(Br)c2[nH]1', 'α1B Human Adrenergic Receptor (Homo sapiens)', 'log10(Ki)', 0.77);

* * *

Catalogue of pKi readings, one per entry.
Target: α2C Human Adrenergic Receptor (Homo sapiens, UniProt P18825)
Assay: Equilibrium competition binding, [3H] rauwolscine, membranes of transfected LM(tk-) cells
pKi: −log10 of the molar value.
REPORTED_METRIC: pKi

INSERT INTO measurements (structure_as_smiles, readout_number) VALUES
  ('Brc1c(NC2=NCCN2)ccc2nc[nH]c12', 7.01),
  ('CC(C)c1nc2ccc(NC3=NCCN3)c(Br)c2[nH]1', 6.67),
  ('CCc1c(NC2=NCCN2)ccc2nc[nH]c12', 7.32),
  ('NCCn1cnc2c(Br)c(NC3=NCCN3)ccc21', 5.55),
  ('c1ccc(Cn2cnc3ccc(NC4=NCCN4)cc32)cc1', 6.73),
  ('c1ccc(Cn2cnc3cc(NC4=NCCN4)ccc32)cc1', 6.79),
  ('c1cc2ncn(C3CCCC3)c2cc1NC1=NCCN1', 6.14),
  ('Brc1c(NC2=NCCN2)ccc2c1ncn2Cc1ccccc1', 6.79),
  ('Cc1c(N=C2NCCN2)ccc2[nH]cnc12', 7.59),
  ('Brc1c(NC2=NCCN2)ccc2nc(C(c3ccccc3)c3ccccc3)[nH]c12', 6.61);
